For each of the binders below, state its Kd.
Target: T1, TGFβ3 (R&D Systems)
T1 sequence (P10600 301-412, species assumed, looked up): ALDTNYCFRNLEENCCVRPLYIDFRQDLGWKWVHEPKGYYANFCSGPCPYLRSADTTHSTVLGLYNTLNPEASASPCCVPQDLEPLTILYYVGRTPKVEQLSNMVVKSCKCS
Assay: SPR (Biacore T200), TGFβ amine-coupled to chip, 1:1 fit
One number for each entry, in nM.

human: feline GC1008 chimera felchimGC1008 (antibody, V domains shown) VH: QVQLVQSGAEVKKPGSSVKVSCTASGYTPSSNVISNVRQAPGQGLENNGGVIPIVDIANYAQRPKGRVTITADESTSTTYHELSSLRSEDTAVYYCASTLGLVLDAMDYHGQGTLVTVSS VL: ETVLTQSPGTLSLSPGERATLSCRASQSLGSSYLAWYQQKPGQAPRLLIYGASSRAPGIPDRFSGSGSGTDFTLTISRLEPEDFAVYYCQQYADSPITFGQGTRLEIKR; 2.35
Caninized anti-TGFβ1,2,3 antibody VH5.6 - VL2 (antibody, V domains shown) VH: EVQLVESGGDLVKPGGSLRLSCVASGFTFSSNVISWVRQAPGQGLEWMGGVIPIVDIANYAQRFKGRVTITADESTSTTYMELSSLRSEDTAVYYCASTLGLVLDAMDYWGQGTLVTVSS VL: ETVLTQSPGTLSLSPGERATLSCRASQSLGSSYLAWYQQKPGQAPRLLIYGASSRAPGVPARFSGSGSGTDFTLTISSLEPEDFAVYYCQQYADSPITFGQGTKLEIKR; 1.67
Felinized anti-TGFβ1,2,3 antibody VH3.8 - VL7 (antibody, V domains shown) VH: QVQLVQSGAEVKKPGSSVKVSCKASGYTFSSNVISWVRQAPGKGLQWVAGVIPIVDIANYAQRFKGRFTISIDNSKNTLYLQMNSLKTEDTATYYCASTLGLVLDAMDYWGQGTLVTVSS VL: DIVLTQPPSLSVNLGQTARITCRASQSLGSSYLAWYQQKPGQAPKLVTYGASSRAPGIPDRFSGTNSGITATLTISGARAEDEADYYCQQYADSPITFGQGTKLEIKR; 0.635
Caninized anti-TGFβ1,2,3 antibody VH3.5 - VL2 (antibody, V domains shown) VH: EVQLVQSAAEVKKPGASVKVSCKTSGYIFISNVISWVQQAPGAGLEWMGGVIPIVDIANYAQRFKGRVTLTADTSTNTVYMELSNLRTEDTAVYYCASTLGLVLDAMDYWGQGTLVTVSS VL: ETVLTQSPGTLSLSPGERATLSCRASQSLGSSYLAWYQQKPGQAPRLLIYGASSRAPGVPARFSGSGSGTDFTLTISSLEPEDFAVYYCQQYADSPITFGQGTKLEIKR; 1.91

// next entry
Task: Return reported Kd. Input binder: Caninized anti-TGFβ1,2,3 antibody VH3.1 - VL3 (antibody, V domains shown) VH: DVQLVESGGDLVKPGGSLRLTCVASGYTFSSNVMHWVRQAPGKGLQWVAYVIPIVDIAYYADSVKGRFTISIDNSKNTLYLQMNSLKTEDTATYYCARTLGLVLDAMDYWGQGTLVTVSS VL: EIVMTQSPASLSLSQEEKVTITCRASQSLGSSYLAWYQQKPGQAPKLLIYGASSRAPGVPSRFSGSGSGTDFSFTISSLEPEDVAVYYCQQYADSPITFGQGTKLEIKR
Output: 0.981
